# Test system: Rattus norvegicus
# MEASUREMENT_PROTOCOL: Ability to improve the adjuvant induced arthritis in right secondary lesion in rats at oral doses, 33 mg/kg
# Assay type: functional
MEASURED_ATTRIBUTE: Reduction (%)
Answers are plain numbers, in %.

Dear reader, for each entry below, please note its Reduction.
1. COc1ccc(C(=O)c2ccc3c(c2)C(C)C(=O)O3)cc1 (configuration not stated)
2. O=C1Oc2ccc(C(=O)c3cccs3)cc2/C1=C/c1ccc(Cl)cc1
3. COc1ccc(C(=O)c2ccc(O)c(C(C)C(=O)O)c2)cc1 (configuration not stated)
4. C=CCOc1ccc(C(=O)c2cccs2)cc1C(C)C(=O)O (configuration not stated)

Given back:
1: 5; 2: -18; 3: 31; 4: -8

Dear reader, for each entry below, please note its Reduction.
1. CCCC(C(=O)O)c1cc(C(=O)c2cccs2)ccc1O (configuration not stated)
2. CCCC1C(=O)Oc2ccc(C(=O)c3cccs3)cc21 (configuration not stated)
3. CCC(CC)(C(=O)O)c1cc(C(=O)c2cccs2)ccc1OC

Given back:
[30, 41, 16]

---

# Species: Cavia porcellus
# MEASUREMENT_PROTOCOL: Tested for effect on the production of Lipoxygenase (LO) metabolite, 5,12-diHETE in guinea pig peritoneal polymorphonuclear neutrophils at 30 uM concentration
# Type: functional
Assign 1 (yes) whenever Reduction does not fall below -20%; assign 0 (no) whenever it does.

Consider the worked cases shown below.
O=C1Oc2ccc(C(=O)c3cccs3)cc2/C1=C/c1ccc(Cl)cc1 | 1 (yes)
CC1C(=O)Oc2ccc(C(=O)c3ccccc3)cc21 (configuration not stated) | 1 (yes)
CCCC1C(=O)Oc2ccc(C(=O)c3cccs3)cc21 (configuration not stated) | 1 (yes)
CCC(C(=O)O)c1cc(C(=O)c2cccs2)ccc1O (configuration not stated) | 0 (no)
CCCCC(C(=O)O)c1cc(C(=O)c2cccs2)ccc1O (configuration not stated) | 1 (yes)
C=CCc1cc(C(=O)c2cccs2)cc2c1OC(=O)C2C (configuration not stated) | 0 (no)
CC(C(=O)O)c1cc(C(=O)c2cccs2)ccc1O (configuration not stated) | 0 (no)
COc1ccc2c(c1)c(CC(=O)O)c(C)n2C(=O)c1ccc(Cl)cc1 [INDOMETHACIN] | 0 (no)

Could you now look at the following compound, please?
Asked: Record CC(C(=O)O)c1cc(C(=O)c2ccccc2)ccc1O (configuration not stated) ; criterion: Reduction no lower than -20%. Met?
Given back: 0 (no)

---

# Test system: Rattus norvegicus
# MEASUREMENT_PROTOCOL: Ability to improve the adjuvant induced arthritis in right secondary lesion in rats at oral doses, 33 mg/kg
# Assay type: functional
Labelling: Reduction reported below 20% becomes condition met; at or above becomes condition not met.

Consider the worked cases shown below.
CC1C(=O)Oc2ccc(C(=O)c3cccs3)cc21 (stereo not given) | condition not met
O=C1Oc2ccc(C(=O)c3cccs3)cc2/C1=C/c1ccccc1 | condition not met
O=C(O)/C(=C\c1ccccc1)c1cc(C(=O)c2cccs2)ccc1O | condition met
O=C(c1ccc(O)c(C(Cc2ccccc2)C(=O)O)c1)c1cccs1 (stereo not given) | condition not met
CCCCC1C(=O)Oc2ccc(C(=O)c3cccs3)cc21 (stereo not given) | condition met

Asked: Strictly below 20%: is that where Reduction of O=C(c1ccc2c(c1)C(C(=O)Nc1ccccc1)C(=O)O2)c1cccs1 (stereo not given) sits?
Given back: condition met

Asked: Strictly below 20%: is that where Reduction of CCC(C(=O)O)c1cc(C(=O)c2cccs2)ccc1O (stereo not given) sits?
Given back: condition not met

Asked: Strictly below 20%: is that where Reduction of Cc1ccc(C(=O)c2ccc3c(c2)C(C)C(=O)O3)s1 (stereo not given) sits?
Given back: condition met

Asked: Strictly below 20%: is that where Reduction of Cc1ccc(C(=O)c2ccc(O)c(C(C)C(=O)O)c2)s1 (stereo not given) sits?
Given back: condition met

Asked: Strictly below 20%: is that where Reduction of C=CCc1cc(C(=O)c2cccs2)cc2c1OC(=O)C2C (stereo not given) sits?
Given back: condition met

Asked: Strictly below 20%: is that where Reduction of CC(C(=O)O)c1cc(C(=O)c2ccccc2)ccc1O (stereo not given) sits?
Given back: condition not met

Asked: Strictly below 20%: is that where Reduction of CC(C(=O)O)c1cc(C(=O)c2cccs2)ccc1O (stereo not given) sits?
Given back: condition not met

Asked: Strictly below 20%: is that where Reduction of CC(C(=O)O)c1cc(C(=O)c2ccco2)ccc1O (stereo not given) sits?
Given back: condition met

---

# Organism: Cavia porcellus
# MEASUREMENT_PROTOCOL: Tested for effect on the production of Lipoxygenase (LO) metabolite, 5,12-diHETE in guinea pig peritoneal polymorphonuclear neutrophils at 30 uM concentration
# Type: functional
MEASURED_ATTRIBUTE: Reduction (%)
Give bare numbers, in %.

COc1ccc(C(=O)c2ccc(O)c(C(C)C(=O)O)c2)cc1 (stereo not drawn) | -10
CC(C(=O)O)c1cc(C(=O)c2ccco2)ccc1O (stereo not drawn) | -17

Dear reader, for each entry below, please note its Reduction.
1. Cc1ccc(C(=O)c2ccc(O)c(C(C)C(=O)O)c2)s1 (stereo not drawn)
2. O=C1Oc2ccc(C(=O)c3cccs3)cc2/C1=C/c1ccc(C(F)(F)F)cc1
3. O=C1Cc2cc(C(=O)c3cccs3)ccc2O1
4. CCC1C(=O)Oc2ccc(C(=O)c3cccs3)cc21 (stereo not drawn)
5. CCCC(C(=O)O)c1cc(C(=O)c2cccs2)ccc1O (stereo not drawn)

Given back:
1: -36; 2: 68; 3: -44; 4: 9; 5: -42

Dear reader, for each entry below, please note its Reduction.
1. NC1=NN(c2cccc(C(F)(F)F)c2)CC1 [BW-755C]
2. CC1C(=O)Oc2ccc(C(=O)c3ccc(F)cc3)cc21 (stereo not drawn)
3. CC(C(=O)O)c1cc(C(=O)c2ccc(F)cc2)ccc1O (stereo not drawn)

Given back:
1: 40; 2: -25; 3: -8

---

# Species on record: Cavia porcellus
# MEASUREMENT_PROTOCOL: Tested for effect on the production of Lipoxygenase (LO) metabolite, 5,12-diHETE in guinea pig peritoneal polymorphonuclear neutrophils at 30 uM concentration
# Assay type: functional
MEASURED_ATTRIBUTE: Reduction (%)
One number for each entry, in %.

CC1(C)C(=O)Oc2ccc(C(=O)c3cccs3)cc21 | 49
O=C(O)Cc1cc(C(=O)c2cccs2)ccc1O | -62
CCC1(CC)C(=O)Oc2ccc(C(=O)c3cccs3)cc21 | -7
CCC(CC)(C(=O)O)c1cc(C(=O)c2cccs2)ccc1O | -18
O=C(c1ccc2c(c1)C(C(=O)Nc1ccccc1)C(=O)O2)c1cccs1 (stereo not drawn) | 85
CCCCC1C(=O)Oc2ccc(C(=O)c3cccs3)cc21 (stereo not drawn) | 61

Dear reader, for each entry below, please note its Reduction.
1. COc1ccc(C(=O)c2ccc3c(c2)C(C)C(=O)O3)cc1 (stereo not drawn)
2. CC1C(=O)Oc2ccc(C(=O)c3cccs3)cc21 (stereo not drawn)
3. CC1C(=O)Oc2ccc(C(=O)c3ccco3)cc21 (stereo not drawn)
4. O=C1Oc2ccc(C(=O)c3cccs3)cc2/C1=C/c1ccccc1
5. CC(C)(C)c1cc(/C=C2\C(=O)Oc3ccc(C(=O)c4cccs4)cc32)cc(C(C)(C)C)c1O
6. CC(C)(C(=O)O)c1cc(C(=O)c2cccs2)ccc1O
7. Cc1ccc(C(=O)c2ccc3c(c2)C(C)C(=O)O3)s1 (stereo not drawn)

Given back:
44
39
3
-10
-8
-23
15

Reference source for all entries: ChEMBL document CHEMBL1123839
